# assay: Cytotoxicity against human PBMC assessed as cell viability measured during cytokines production assay at 100 uM after 21 hrs by MTS assay
# Assay type: cell-based
# conditionSet: PBMC (peripheral blood mononuclear cells)
metricName: cytotoxicity at 21 h, 100 µM (%)
The figure you give is taken to be in %; do not add the unit.

Using the record for FC(F)(F)c1cccc(-n2cc(C3=NOC(CN4CCOCC4)C3)c3ccccc32)c1 (stereo unspecified) , report its cytotoxicity at 21 h, 100 µM.
10

Also, c1ccc2c(c1)ccn2CC1CC(c2ccoc2)=NO1 (stereo unspecified) please.
6

Also, Fc1ccc(C2CC(c3cn(-c4cccc(C(F)(F)F)c4)c4ccccc34)=NO2)cc1 (stereo unspecified) please.
1

Also, O=C1CCCN1C1CC(c2cn(-c3cccc(C(F)(F)F)c3)c3ccccc23)=NO1 (stereo unspecified) please.
16

Also, c1cc(C2=NOC(C3CCCCC3)C2)co1 (stereo unspecified) please.
1

Also, CC1(C(=O)O)CC(c2ccoc2)=NO1 (stereo unspecified) please.
10

Also, COc1ccc(C2CC(c3cn(-c4cccc(C(F)(F)F)c4)c4ccccc34)=NO2)cc1 (stereo unspecified) please.
3

Also, OCCC1CC(c2ccoc2)=NO1 (stereo unspecified) please.
10

Also, COC(=O)CC1CC(c2ccc(O)cc2)=NO1 (stereo unspecified) please.
10

Also, COC(=O)C1(C)CC(c2ccoc2)=NO1 (stereo unspecified) please.
1

Also, FC(F)(F)c1ccc(C2CC(c3cn(-c4cccc(C(F)(F)F)c4)c4ccccc34)=NO2)cc1 (stereo unspecified) please.
6
